system: HeLa Kyoto; test: melting temperature (median over replicates), in situ; higher = more thermally stable; conditions: cell cycle stage: mitosis
This section presents sequences with their documented melting temperature values.
Report the value in °C with no unit label.

Some sequences with known melting temperature results, for comparison:
residueCodes: MFLVGLTGGIASGKSSVIQVFQQLGCAVIDVDVMARHVVQPGYPAHRRIVEVFGTEVLLENGDINRKVLGDLIFNQPDRRQLLNAITHPEIRKEMMKETFKYFLRGYRYVILDIPLLFETKKLLKYMKHTVVVYCDRDTQLARLMRRNSLNRKDAEARINAQLPLTDKARMARHVLDNSGEWSVTKRQVILLHTELERSLEYLPLRFGVLTGLAAIASLLYLLTHYLLPYA [DCAKD]
testSystem: HeLa Kyoto
readoutNumber: 50.9
--
residueCodes: MSPARRCRGMRAAVAASVGLSEGPAGSRSGRLFRPPSPAPAAPGARLLRLPGSGAVQAASPERAGWTEALRAAVAELRAGAVVAVPTDTLYGLACAASCSAALRAVYRLKGRSEAKPLAVCLGRVADVYRYCRVRVPEGLLKDLLPGPVTLVMERSEELNKDLNPFTPLVGIRIPDHAFMQDLAQMFEGPLALTSANLSSQASSLNVEEFQDLWPQLSLVIDGGQIGDGQSPECRLGSTVVDLSVPGKFGIIRPGCALESTTAILQQKYGLLPSHASYL [YRDC]
testSystem: HeLa Kyoto
readoutNumber: 52.7

melting temperature for MAAAMVPGRSESWERGEPGRPALYFCGSIRGGREDRTLYERIVSRLRRFGTVLTEHVAAAELGARGEEAAGGDRLIHEQDLEWLQQADVVVAEVTQPSLGVGYELGRAVAFNKRILCLFRPQSGRVLSAMIRGAADGSRFQVWDYEEGEVEALLDRYFEADPPGQVAASPDPTT [DNPH1] ?
55.3

---

system: HeLa Kyoto; assay: solubility in G1/S (NP-40 vs SDS abundance) (log2 ratio); higher = more soluble; conditions: cell cycle stage: G1/S
This section presents sequences with their documented solubility in G1/S (log2) values.

Some sequences with known solubility in G1/S (log2) results, for comparison:
residueCodes: MAERGYSFSLTTFSPSGKLVQIEYALAAVAGGAPSVGIKAANGVVLATEKKQKSILYDERSVHKVEPITKHIGLVYSGMGPDYRVLVHRARKLAQQYYLVYQEPIPTAQLVQRVASVMQEYTQSGGVRPFGVSLLICGWNEGRPYLFQSDPSGAYFAWKATAMGKNYVNGKTFLEKRYNEDLELEDAIHTAILTLKESFEGQMTEDNIEVGICNEAGFRRLTPTEVKDYLAAIA [PSMA2]
result: 0.391
//
residueCodes: MPALLERPKLSNAMARALHRHIMMERERKRQEEEEVDKMMEQKMKEEQERRKKKEMEERMSLEETKEQILKLEEKLLALQEEKHQLFLQLKKVLHEEEKRRRKEQSDLTTLTSAAYQQSLTVHTGTHLLSMQGSPGGHNRPGTLMAADRAKQMFGPQVLTTRHYVGSAAAFAGTPEHGQFQGSPGGAYGTAQPPPHYGPTQPAYSPSQQLRAPSAFPAVQYLSQPQPQPYAVHGHFQPTQTGFLQPGGALSLQKQMEHANQQTGFSDSSSLRPMHPQALHPAPGLLASPQLPVQMQPAGKSGFAATSQPGPRLPFIQHSQNPRFYHK [GPS2]
result: 0.416

solubility in G1/S (log2) for MLLLTRSPTAWHRLSQLKPRVLPGTLGGQALHLRSWLLSRQGPAETGGQGQPQGPGLRTRLLITGLFGAGLGGAWLALRAEKERLQQQKRTEALRQAAVGQGDFHLLDHRGRARCKADFRGQWVLMYFGFTHCPDICPDELEKLVQVVRQLEAEPGLPPVQPVFITVDPERDDVEAMARYVQDFHPRLLGLTGSTKQVAQASHSYRVYYNAGPKDEDQDYIVDHSIAIYLLNPDGLFTDYYGRSRSAEQISDSVRRHMAAFRSVLS [SCO2] ?
0.334
